# System tested: E. coli AP (Escherichia coli, UniProt P00634)
# Sequence (P00634 22-471): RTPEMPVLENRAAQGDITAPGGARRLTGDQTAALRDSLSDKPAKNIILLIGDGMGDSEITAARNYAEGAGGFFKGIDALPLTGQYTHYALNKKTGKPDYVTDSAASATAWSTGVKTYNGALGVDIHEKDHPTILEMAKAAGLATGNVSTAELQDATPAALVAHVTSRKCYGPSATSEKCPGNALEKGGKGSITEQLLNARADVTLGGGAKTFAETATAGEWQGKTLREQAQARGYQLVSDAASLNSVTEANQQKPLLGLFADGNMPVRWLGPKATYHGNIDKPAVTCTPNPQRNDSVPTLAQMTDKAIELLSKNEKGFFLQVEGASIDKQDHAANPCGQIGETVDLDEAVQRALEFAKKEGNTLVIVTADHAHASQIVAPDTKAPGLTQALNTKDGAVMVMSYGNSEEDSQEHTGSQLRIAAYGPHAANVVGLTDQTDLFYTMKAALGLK
# Assay type: biochemical
# Condition details: 4.8 units/test of E. coli AP spike, no antigen; acid wash 0.15M
Readout label: reflectance

For orientation, consider the following solved cases.
CC(O)C(=O)O (centres unmarked) | .06
O=C(O)C(O)C(O)C(=O)O (centres unmarked) | .04
O=C(O)CCCC(=O)O | .06
O=C(O)CC(O)C(=O)O (centres unmarked) | .06

Consider now this further compound.
Asked: Given the entry `O=C(O)CC(O)(CC(=O)O)C(=O)O` , what reflectance was observed with E. coli AP (Escherichia coli, UniProt P00634)?
Given back: .03

====

Below, each entry is listed alongside its reported Reflectance (arbitrary units).
# Test system: endogenous AP in uninfected MDCK cells
# Design: species or system canine
# Condition details: 600 ng uninfected MDCK cells; acid wash 0.15M

O=C(O)CCCC(=O)O [B, glutaric acid] | .10 arbitrary units
CC(O)C(=O)O (centres unmarked) [F, lactic acid] | .12 arbitrary units
O=C(O)CC(O)C(=O)O (centres unmarked) [E, malic acid] | .12 arbitrary units
O=C(O)C(O)C(O)C(=O)O (centres unmarked) [C, tartaric acid] | .10 arbitrary units

Asked: // lookup Reflectance (arbitrary units) for O=C(O)CC(O)(CC(=O)O)C(=O)O [A, citric acid]
Given back: .12 arbitrary units
